Reference source: patent US20240002393A1

target: h-GABA-A α2β2γ1 (Homo sapiens (Human), UniProt P47869+Q8N1C3); test: Two-electrode voltage clamp electrophysiology in Xenopus oocytes expressing GABAA receptors; format: cell-based; settings: % modulation of GABA EC20 = 100*(Fold increase−1), compound at 30-fold Ki
// reported Efficacy (GABA)% for each item listed

- molecule_smiles: "C[C@@H]1N=C(c2c(F)cccc2F)c2c(ccc(Cl)c2Br)-n2c(-c3ccn(C)n3)nnc21"
  Efficacy (GABA)%: "46%"
- molecule_smiles: "C[C@@H]1N=C(c2c(F)cccc2F)c2c(ccc(C(F)(F)F)c2Cl)-n2cnnc21"
  Efficacy (GABA)%: "147%"
- molecule_smiles: "C[C@@H]1N=C(c2c(F)cccc2F)c2c(ccc(Cl)c2Br)-n2c1n[nH]c2=O"
  Efficacy (GABA)%: "88%"
- molecule_smiles: "Cc1nccc(-c2nnc3n2-c2ccc(Cl)c(Cl)c2C(c2c(F)cccc2F)=N[C@H]3C)n1"
  Efficacy (GABA)%: "53%"
- molecule_smiles: "C[C@@H]1N=C(c2c(F)cccc2F)c2c(ccc(Cl)c2Br)-n2c(-c3cccnn3)nnc21"
  Efficacy (GABA)%: "105%"
- molecule_smiles: "Cc1nnc2n1-c1ccc(I)c(Cl)c1C(c1c(F)cccc1F)=N[C@H]2C"
  Efficacy (GABA)%: "89%"
- molecule_smiles: "Cc1cc(-c2nnc3n2-c2ccc(Cl)c(Cl)c2C(c2c(F)cccc2F)=N[C@H]3C)ncn1"
  Efficacy (GABA)%: "47%"
- molecule_smiles: "CC[C@@H]1N=C(c2c(F)cccc2F)c2c(ccc(Br)c2Cl)-n2c(C)nnc21"
  Efficacy (GABA)%: "107%"
